Source of measurements: PubChem BioAssay (NCI)

Tested on: HOP-92 NSCLC
Experiment: NCI-60 one-dose screen, 48 h
Conditions: 10 µM unless noted
Method: Growth inhibition of the HOP-92 human Non-Small Cell Lung tumor cell line is measured as a screen for anti-cancer activity. Cells are grown in 96 well plates and exposed to the test compound for 48 hours. Compounds are tested at a single concentration, which is 10^-5 M for most compounds. The reported endpoint is percent growth (GI% or GIPRCNT), where numbers from 0 - 100% represent growth inhibition, and numbers from -100% - 0 represent cell death. […]
Compounds without any hit were thinned out: in the full panel of roughly 83,000, 20% have a hit. Active and inactive are the calls of the source. How the source made its calls: active means growth percent below 10; inactive means the rest.
Labels: 1 (active), 0 (inactive)

>  <compound>
Cc1ccc(N(CC(=O)Nc2ccc(S(=O)(=O)N3CCC(N4CCCC4)CC3)cc2)S(=O)(=O)c2ccc(Cl)cc2)cc1

>  <categoryLabel>
0

$$$$
>  <compound>
COc1ccc(-c2cc(-c3c(C)oc4cc5occc5c(OC)c4c3=O)nc(N)c2C#N)cc1OC

>  <categoryLabel>
0

$$$$
>  <compound>
O=C(O)c1cccc2c1-c1ccc(Cl)cc1C2

>  <categoryLabel>
0

$$$$
>  <compound>
C=COCCCCCCCCCCCCCCCCCC

>  <categoryLabel>
0

$$$$
>  <compound>
c1cc(N2CCCC2)c2nc(-c3[nH]ncc3Nc3ncnc4[nH]ccc34)[nH]c2c1

>  <categoryLabel>
1

$$$$
>  <compound>
CN1CCN(CCOc2ccc(-c3cnc4c(-c5cccc(F)c5)cnn4c3)cc2)CC1

>  <categoryLabel>
0

$$$$
>  <compound>
COc1ccc2c(c1)c(-c1nc(-c3c[nH]c4ncccc34)cs1)cn2C

>  <categoryLabel>
0

$$$$
>  <compound>
O=c1[nH]c(=S)[nH]c2nc[nH]c12

>  <categoryLabel>
0

$$$$
>  <compound>
Cc1cc(Cl)nc(N(CCCNc2ccnc3cc(Cl)ccc23)Cc2ccco2)n1

>  <categoryLabel>
1

$$$$
>  <compound>
N#C/C(=C\c1ccc(-c2ccc(F)cc2)o1)c1nc(-c2ccco2)cs1

>  <categoryLabel>
0

$$$$
>  <compound>
Cc1cc(C)n(Cc2cc(C(C)(C)C)cc(C(C)(C)C)c2)c(=O)c1C#N

>  <categoryLabel>
0

$$$$
>  <compound>
Cc1ccsc1-c1ccc2c(c1)COC2(CCCN(C)C)c1ccc(F)cc1 (configuration not stated)

>  <categoryLabel>
0

$$$$
>  <compound>
CC(C)(C)c1nc(-c2ccc(O)c(O)c2)cs1

>  <categoryLabel>
0

$$$$
>  <compound>
Nc1c2c(nc3ccc(Cl)cc13)CC(c1ccccc1)CC2=O (configuration not stated)

>  <categoryLabel>
0

$$$$
>  <compound>
COc1cc(/C=N/Nc2ncnc3c2c(C)nn3-c2ccc(F)cc2)ccc1O

>  <categoryLabel>
0

$$$$
>  <compound>
N=C(N)c1ccc(-c2ccc(-c3cc(F)cc(F)c3)o2)nc1

>  <categoryLabel>
0

$$$$
>  <compound>
CN(C)CCCCC(C(=O)CBr)(c1ccccc1)c1ccccc1

>  <categoryLabel>
1

$$$$
>  <compound>
O=C(N/N=C\c1c(O)ccc2ccccc12)C1CC1

>  <categoryLabel>
0

$$$$
>  <compound>
C#CCC(C)(O)/C=C/C1=C(C)CCCC1(C)C (configuration not stated)

>  <categoryLabel>
0

$$$$
>  <compound>
CN(C)c1ccc(C(=O)c2ccc(N(C)C)c(N)c2)cc1N

>  <categoryLabel>
0

$$$$
>  <compound>
NC1(N)C=CC2=C(C=C1)C1(N)C3=C(C=CC(N)(N)C=C3)N2C2(N)C3=C(C=CC(N)(N)C=C3)N1C1=C2C=CC(N)(N)C=C1

>  <categoryLabel>
0

$$$$
>  <compound>
Cn1cc(-c2csc(-c3cn(CCCN4CCCCC4)c4ccc(F)cc34)n2)c2cccnc21

>  <categoryLabel>
0

$$$$
